# Test system: MolM14 leukemia cell line
# assay_overview: CellTiter-Glo assay, drug administered alone
# Format: cell-based
# condition_parameters: Homo sapiens, MOLM-14, 72 h, cytarabine alone; MolM14; 72 hours; read-out: IC50 First test
observable: pIC50
When answering, recall that pIC50 equals minus log10 of the concentration in mol/L, and write that number alone.

Kindly state the measured pIC50 obtained for Nc1ccn([C@@H]2O[C@H](CO)[C@@H](O)[C@@H]2O)c(=O)n1 with MolM14 leukemia cell line.
7.00

====

# System: MolM13 leukemia cell line
# assay_overview: CellTiter-Glo assay, drug administered alone
# Format: cell-based
# condition_parameters: Homo sapiens, MOLM-13; 5-azacytidine alone; MolM13; 72 hours; read-out: IC50 First test
observable: IC50 (nM)
Express your answer in nM, writing the number without its unit.

Kindly state the measured IC50 obtained for Nc1ncn([C@@H]2O[C@H](CO)[C@@H](O)[C@H]2O)c(=O)n1 with MolM13 leukemia cell line.
1710

====

# Tested on: MolM14 leukemia cell line
# assay_overview: CellTiter-Glo assay, drug administered alone
# Assay type: cell-based
# condition_parameters: Homo sapiens, MOLM-14, venetoclax administered alone; MolM 14; Table 7; read-out: IC50 Venetoclax
observable: pIC50
When answering, recall that pIC50 equals minus log10 of the concentration in mol/L, and write that number alone.

Kindly state the measured pIC50 obtained for CC1(C)CCC(CN2CCN(c3ccc(C(=O)NS(=O)(=O)c4ccc(NCC5CCOCC5)c([N+](=O)[O-])c4)c(Oc4cnc5[nH]ccc5c4)c3)CC2)=C(c2ccc(Cl)cc2)C1 [Venetoclax] with MolM14 leukemia cell line.
6.55

====

# Tested on: HL-60 leukemia cell line
# assay_overview: CellTiter-Glo assay, drug administered alone
# Format: cell-based
# condition_parameters: Homo sapiens, HL-60, PHI-101 administered alone, Table 10, read-out: IC50 PHI-101
observable: IC50 (µM)
Express your answer in µM, writing the number without its unit.

Fill in: IC50 of NC(=O)Nc1cc(C#Cc2cccc(F)c2)sc1C(=O)N[C@H]1CCCNC1 is ___
2.2

====

# Tested on: BDCM leukemia cell line
# assay_overview: CellTiter-Glo assay, drug administered alone
# Assay type: cell-based
# condition_parameters: 72 h, 5-azacytidine alone, read-out: IC50 Second test
# Protocol: The first and second tests were performed in triplicate on the above cell lines while reducing the concentration of venetoclax by half each time from 100 μM, and the third test was performed in triplicate on the BDCM cell line while reducing the concentration of venetoclax by half each time from 100 μM, and performed in triplicate on HL-60, MolM13, MolM14, and MV4-11 cell lines while reducing the concentration of venetoclax by half each time from 2.5 μM. […]
observable: pIC50
When answering, recall that pIC50 equals minus log10 of the concentration in mol/L, and write that number alone.

Fill in: pIC50 of Nc1ncn([C@@H]2O[C@H](CO)[C@@H](O)[C@H]2O)c(=O)n1 [5-azacytidine] is ___
4.63

====

# System: BDCM leukemia cell line
# assay_overview: CellTiter-Glo assay, drug administered alone
# Format: cell-based
# condition_parameters: PHI-101 administered alone, Table 10, read-out: IC50 PHI-101
observable: IC50
A bare number is not enough; add the unit after it.

Fill in: IC50 of NC(=O)Nc1cc(C#Cc2cccc(F)c2)sc1C(=O)N[C@H]1CCCNC1 is ___
230 nM

====

# Tested on: BDCM leukemia cell line
# assay_overview: CellTiter-Glo assay, drug administered alone
# Type: cell-based
# condition_parameters: azacitidine administered alone, Table 10, read-out: IC50 Azacitidine
observable: IC50

Fill in: IC50 of Nc1ncn([C@@H]2O[C@H](CO)[C@@H](O)[C@H]2O)c(=O)n1 [5-azacytidine] is ___
98.2 µM

====

# Tested on: HL-60 leukemia cell line
# assay_overview: CellTiter-Glo assay, drug administered alone
# Assay type: cell-based
# condition_parameters: Homo sapiens, HL-60, PHI-101 administered alone, Table 7, read-out: IC50 PHI-101
observable: IC50 (nM)
Express your answer in nM, writing the number without its unit.

Fill in: IC50 of NC(=O)Nc1cc(C#Cc2cccc(F)c2)sc1C(=O)N[C@H]1CCCNC1 is ___
2080

====

# Test system: MolM14 leukemia cell line
# assay_overview: CellTiter-Glo assay, drug administered alone
# Assay type: cell-based
# condition_parameters: Homo sapiens, MOLM-14, 72 h, venetoclax alone; MolM14; 72 hours; read-out: IC50 Fourth test
observable: pIC50
When answering, recall that pIC50 equals minus log10 of the concentration in mol/L, and write that number alone.

Fill in: pIC50 of CC1(C)CCC(CN2CCN(c3ccc(C(=O)NS(=O)(=O)c4ccc(NCC5CCOCC5)c([N+](=O)[O-])c4)c(Oc4cnc5[nH]ccc5c4)c3)CC2)=C(c2ccc(Cl)cc2)C1 is ___
6.66

====

# System: MolM13 leukemia cell line
# assay_overview: CellTiter-Glo assay, drug administered alone
# Assay type: cell-based
# condition_parameters: Homo sapiens, MOLM-13; 5-azacytidine alone; MolM13; 72 hours; read-out: IC50 Second test
observable: IC50 (nM)
Express your answer in nM, writing the number without its unit.

Fill in: IC50 of Nc1ncn([C@@H]2O[C@H](CO)[C@@H](O)[C@H]2O)c(=O)n1 [5-azacytidine] is ___
1410

====

# Test system: MV4-11 leukemia cell line
# assay_overview: CellTiter-Glo assay, drug administered alone
# Type: cell-based
# condition_parameters: Homo sapiens, cytarabine administered alone, Table 13, read-out: IC50 Cytarabine
observable: pIC50
When answering, recall that pIC50 equals minus log10 of the concentration in mol/L, and write that number alone.

Fill in: pIC50 of Nc1ccn([C@@H]2O[C@H](CO)[C@@H](O)[C@@H]2O)c(=O)n1 is ___
7.09

====

# Test system: MV4-11 leukemia cell line
# assay_overview: CellTiter-Glo assay, drug administered alone
# Format: cell-based
# condition_parameters: Homo sapiens, azacitidine administered alone, Table 10, read-out: IC50 Azacitidine
# Method: The first and second tests were performed in triplicate on the above cell lines while reducing the concentration of venetoclax by half each time from 100 μM, and the third test was performed in triplicate on the BDCM cell line while reducing the concentration of venetoclax by half each time from 100 μM, and performed in triplicate on HL-60, MolM13, MolM14, and MV4-11 cell lines while reducing the concentration of venetoclax by half each time from 2.5 μM. […]
observable: IC50 (nM)
Express your answer in nM, writing the number without its unit.

Fill in: IC50 of Nc1ncn([C@@H]2O[C@H](CO)[C@@H](O)[C@H]2O)c(=O)n1 is ___
2050

====

# Test system: MolM13 leukemia cell line
# assay_overview: CellTiter-Glo assay, drug administered alone
# Assay type: cell-based
# condition_parameters: Homo sapiens; cytarabine administered alone; MolM 13; Table 13; read-out: IC50 Cytarabine
observable: pIC50
When answering, recall that pIC50 equals minus log10 of the concentration in mol/L, and write that number alone.

Fill in: pIC50 of Nc1ccn([C@@H]2O[C@H](CO)[C@@H](O)[C@@H]2O)c(=O)n1 is ___
7.53

====

# Test system: MolM13 leukemia cell line
# assay_overview: CellTiter-Glo assay, drug administered alone
# Assay type: cell-based
# condition_parameters: Homo sapiens; venetoclax administered alone; MolM 13; Table 7; read-out: IC50 Venetoclax
observable: pIC50
When answering, recall that pIC50 equals minus log10 of the concentration in mol/L, and write that number alone.

Fill in: pIC50 of CC1(C)CCC(CN2CCN(c3ccc(C(=O)NS(=O)(=O)c4ccc(NCC5CCOCC5)c([N+](=O)[O-])c4)c(Oc4cnc5[nH]ccc5c4)c3)CC2)=C(c2ccc(Cl)cc2)C1 [Venetoclax] is ___
7.84

====

# System: U937 leukemia cell line
# assay_overview: CellTiter-Glo assay, drug administered alone
# Format: cell-based
# condition_parameters: Homo sapiens, U-937, cytarabine administered alone, Table 13, read-out: IC50 Cytarabine
observable: IC50 (nM)
Express your answer in nM, writing the number without its unit.

Fill in: IC50 of Nc1ccn([C@@H]2O[C@H](CO)[C@@H](O)[C@@H]2O)c(=O)n1 is ___
9.25

====

# System: BDCM leukemia cell line
# assay_overview: CellTiter-Glo assay, drug administered alone
# Type: cell-based
# condition_parameters: cytarabine administered alone, Table 13, read-out: IC50 Cytarabine
observable: IC50 (nM)
Express your answer in nM, writing the number without its unit.

Fill in: IC50 of Nc1ccn([C@@H]2O[C@H](CO)[C@@H](O)[C@@H]2O)c(=O)n1 [Cytarabine] is ___
2340

====

# Test system: THP-1 leukemia cell line
# assay_overview: CellTiter-Glo assay, drug administered alone
# Format: cell-based
# condition_parameters: Homo sapiens, THP-1, PHI-101 administered alone, Table 13, read-out: IC50 PHI-101
observable: IC50 (nM)
Express your answer in nM, writing the number without its unit.

Fill in: IC50 of NC(=O)Nc1cc(C#Cc2cccc(F)c2)sc1C(=O)N[C@H]1CCCNC1 [PHI-101] is ___
735

Taken from patent US20250312327A1.
